B1: POU domain, class 2, transcription factor 3, residues 186 to 260; numbered along this chain, Q9UKI9 (parent)
chain: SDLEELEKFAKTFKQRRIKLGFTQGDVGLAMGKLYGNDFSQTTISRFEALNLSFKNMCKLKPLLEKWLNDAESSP

- Variants of: B1
- assay method text: abundance fitness (aPCA) (normalised: wild type 0, dead -1); higher = more abundant; growth selection in yeast, the domain comes from the species named
- condition notes: Homo sapiens
Would you kindly list abundance fitness for each of these variants?
Numbers only.

Past entries and their recorded results:
1. SDLEELEKFAKTFKQRRIKLGFTQGDVGLAMGKLYGNDFSQTTISRFCALNLSFKNMCKLKPLLEKWLNDAESSP ... -0.871
2. SDLEELEKFAKTFKQRRIKLGFTQGDVGLAMGKLYGNDFSQTTISRFEALNLSFKNMCKLKPFLEKWLNDAESSP ... -0.221
3. SDLEELEKFAKTFKQRRIKLGFTQGDVGLAMGKLYGNDFSQTTISRFEALNLSFKNMCKTKPLLEKWLNDAESSP ... -0.039
4. SDLEELEKFAKTFKQRRIKLGFTQGDVGLAMGKLYGNDFSQTTISRFEALNLSFKNMCKFKPLLEKWLNDAESSP ... -0.079
5. SDLEELEKFAKTFKQRRIKLGFTQGDVGLAMGKLYGNDFSQTTISRFEALNLSFKNMGKLKPLLEKWLNDAESSP ... -0.031
6. SDLEELEKFAKTFKQRRIKLGFTQGDVGLAMGKLYGNDFSQTTISRFEALNLSFKNMLKLKPLLEKWLNDAESSP ... -0.02

Please state abundance fitness for every variant in the list that follows.
1. SDLEELEKFAKTFKQRRIKLGFTQGDVGLAMGKLYGNDFSQTTISRFEALNLSFKNPCKLKPLLEKWLNDAESSP
2. SDLEELEKFAKTFKQRRIKLGFTQGDVGLAMGKLYGNDFSQTTISRFEALNLSFKHMCKLKPLLEKWLNDAESSP

**Result**
-0.8
0.014

Please state abundance fitness for every variant in the list that follows.
1. SDLEELEKFAKTFKQRRIKLGFTQGDVGLAMGKLYGNDFSQTTISRFEALNLSFKNMCWLKPLLEKWLNDAESSP
2. SDLEELEKFAKTFKQRRIKLGFTQGDVGLAMGKLYGNDFSQTTISRFEALNLSFKNMEKLKPLLEKWLNDAESSP
3. SELEELEKFAKTFKQRRIKLGFTQGDVGLAMGKLYGNDFSQTTISRFEALNLSFKNMCKLKPLLEKWLNDAESSP
4. SDLEELEKFAKTFKQRRIKLGFTQGDVGLAMGKLYGNDFSQTTISRFEALNLSFKNMCKLRPLLEKWLNDAESSP
5. SDLEELEKFAKTFKQRRIKLGFTQGDVGLAMGKLYGNDFSQTTISRFEALNLSFKNMCKNKPLLEKWLNDAESSP
6. SDLEELEKFAKTFKQRRIKLGFTQGDVGLAMGKLYGNDFSQTTISRFEALNLSFKNMCKLKPLLEKWLNDLESSP

**Result**
1: -0.129; 2: -0.039; 3: 0.015; 4: -0.02; 5: -0.395; 6: 0.017

Hello, the source for this data is the Human Domainome abundance scans (Beltran et al. 2025), in case you need it.
